Source of measurements: patent US10487093B2

MIC values by entry
- Tested on: strains of Prevotella melaninogenica
- TEST_SUMMARY: MIC against anaerobes, agar dilution (CLSI), clinical isolates
- Type: cell-based
- STUDY_CONDITIONS: Prevotella melaninogenica strain 3
REPORTED_PROPERTY: MIC

[
  {
    "COMPOUND": "Cc1ncc([N+](=O)[O-])n1CCO [MTZ, metronidazole, reference compound]",
    "RESULT": "< 1 µg/mL"
  },
  {
    "COMPOUND": "Cc1ccc2ncc(=O)n(CCN[C@H]3CC[C@H]4[C@@H](C3)OC(=O)N4c3ccc4c(n3)NC(=O)CO4)c2c1 [Compound 27]",
    "RESULT": "< 1 µg/mL"
  },
  {
    "COMPOUND": "COc1ccc2ncc(=O)n(CCN[C@@H]3CC[C@@H]4[C@@H](C3)OC(=O)N4c3ccc4c(n3)NC(=O)CO4)c2c1 [Compound 21]",
    "RESULT": "< 1 µg/mL"
  },
  {
    "COMPOUND": "CN[C@H](CC(C)C)C(=O)N[C@H]1C(=O)N[C@@H](CC(N)=O)C(=O)N[C@H]2C(=O)N[C@H]3C(=O)N[C@H](C(=O)N[C@H](C(=O)O)c4cc(O)cc(O)c4-c4cc3ccc4O)[C@H](O)c3ccc(c(Cl)c3)Oc3cc2cc(c3O[C@@H]2O[C@H](CO)[C@@H](O)[C@H](O)[C@H]2O[C@H]2C[C@](C)(N)[C@H](O)[C@H](C)O2)Oc2ccc(cc2Cl)[C@H]1O [VAN, vancomycin, reference compound]",
    "RESULT": "> 64 µg/mL"
  }
]

---

MIC values by entry
- Test system: Haemophilus influenzae ATCC 49247
- TEST_SUMMARY: MIC, broth microdilution (CLSI) versus planktonic bacteria
- Format: cell-based
- STUDY_CONDITIONS: ATCC49247; Haemophilus influenzae ATCC 49247; 16-20 h; mode of three independent experiments; read-out: MIC, Hi ATCC 49247

[
  {
    "COMPOUND": "N#Cc1ccc(-c2cccc(CN[C@H]3CC[C@H]4[C@H](C3)OC(=O)N4c3ccc4c(n3)NC(=O)CO4)c2)nc1 [Compound 71]",
    "MIC": "1 to 10 µg/mL"
  },
  {
    "COMPOUND": "COc1cnc2ccc(=O)n(CCCN[C@H]3CC[C@H]4[C@H](C3)OC(=O)N4c3ccc4c(n3)NC(=O)CO4)c2c1 [Compound 99]",
    "MIC": "< 1 µg/mL"
  },
  {
    "COMPOUND": "NCCOc1ccc2ccc(=O)n(CCN[C@@H]3CC[C@@H]4[C@@H](C3)OC(=O)N4c3ccc4c(n3)NC(=O)CO4)c2c1 [Compound 23]",
    "MIC": "> 100 µg/mL"
  },
  {
    "COMPOUND": "COc1cnc2ccc(=O)n(CCN(C)[C@H]3CC[C@H]4[C@@H](C3)OC(=O)N4c3ccc4c(n3)NC(=O)CO4)c2c1 [Compound 51]",
    "MIC": "< 1 µg/mL"
  },
  {
    "COMPOUND": "COc1cnc2ccc(=O)n(CCCN[C@H]3CC[C@H]4[C@H](C3)OC(=O)N4c3ccc4c(n3)NC(=O)CS4)c2c1 [Compound 96]",
    "MIC": "< 1 µg/mL"
  },
  {
    "COMPOUND": "COc1cc2c(ccc(=O)n2CCN[C@H]2CC[C@H]3[C@H](C2)OC(=O)N3c2ccc3c(n2)NC(=O)CO3)cn1 [Compound 62]",
    "MIC": "1 to 10 µg/mL"
  },
  {
    "COMPOUND": "COc1ccc2ccc(=O)n(CCCN[C@H]3CC[C@H]4[C@H](C3)OC(=O)N4c3ccc4c(n3)NC(=O)CS4)c2n1 [Compound 85]",
    "MIC": "< 1 µg/mL"
  }
]
